Overview of recorded IC50 for various compounds
SUBJECT_OF_TEST: JAK3 (Homo sapiens, UniProt P52333)
Construct: endogenous in cells; mixed lysate 1:2
Sequence (P52333 1-1124): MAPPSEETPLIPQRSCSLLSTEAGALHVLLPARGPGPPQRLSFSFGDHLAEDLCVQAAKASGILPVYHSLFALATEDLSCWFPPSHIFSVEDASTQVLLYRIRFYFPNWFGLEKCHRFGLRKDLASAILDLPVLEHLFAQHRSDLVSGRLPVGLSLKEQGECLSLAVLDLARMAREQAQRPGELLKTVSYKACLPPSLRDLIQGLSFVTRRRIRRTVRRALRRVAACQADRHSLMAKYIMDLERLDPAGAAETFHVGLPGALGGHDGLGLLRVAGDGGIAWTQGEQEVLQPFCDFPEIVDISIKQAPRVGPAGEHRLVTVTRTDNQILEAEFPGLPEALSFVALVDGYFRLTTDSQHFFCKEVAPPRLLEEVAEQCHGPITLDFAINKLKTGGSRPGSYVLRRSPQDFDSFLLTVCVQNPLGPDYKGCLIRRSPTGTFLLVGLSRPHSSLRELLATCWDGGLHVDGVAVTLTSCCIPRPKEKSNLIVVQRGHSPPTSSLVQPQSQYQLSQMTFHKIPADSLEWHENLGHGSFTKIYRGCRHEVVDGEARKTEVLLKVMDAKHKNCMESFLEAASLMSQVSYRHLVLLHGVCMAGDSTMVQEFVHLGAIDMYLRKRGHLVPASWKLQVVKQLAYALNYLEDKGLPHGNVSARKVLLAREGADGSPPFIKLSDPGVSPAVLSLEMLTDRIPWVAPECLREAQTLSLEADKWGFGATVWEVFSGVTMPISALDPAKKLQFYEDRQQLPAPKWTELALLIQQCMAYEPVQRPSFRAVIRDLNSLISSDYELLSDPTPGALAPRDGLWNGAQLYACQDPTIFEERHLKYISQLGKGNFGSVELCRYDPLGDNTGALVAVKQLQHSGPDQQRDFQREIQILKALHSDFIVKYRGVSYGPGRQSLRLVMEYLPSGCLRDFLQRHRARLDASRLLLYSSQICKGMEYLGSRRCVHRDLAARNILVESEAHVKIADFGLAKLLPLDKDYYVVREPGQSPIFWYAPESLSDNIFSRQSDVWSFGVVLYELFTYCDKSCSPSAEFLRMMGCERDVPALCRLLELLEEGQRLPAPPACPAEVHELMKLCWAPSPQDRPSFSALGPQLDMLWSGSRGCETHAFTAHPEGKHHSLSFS
ASSAY_SUMMARY: Kinobeads assay with immunodetection, JAK3
CONDITION_DESCRIPTION: Kinobeads assay, mixed Molt4/Ramos lysate; read-out: Inhibition values (IC50) JAK3

Observe how each entry below is paired with its result.
COMPOUND | MEASUREMENT_NAME | RESULT
Cn1cc(Nc2ncc(Cl)c(NC[C@H]3CCCN3C(=O)CCC#N)n2)cn1 [Example 86] | IC50 | < 0.1 µM
Cn1cc(Nc2ncc(Cl)c(NC[C@H]3CCCN3CCS(C)(=O)=O)n2)cn1 [Example 50] | IC50 | < 0.1 µM
C=CC(=O)N1CCCC[C@@H]1CNc1nc(Nc2cnn(CCO)c2)ncc1Cl [Example 42] | IC50 | 0.1 to 1 µM

Q. Identify IC50 associated with the compound Cc1cnc(Nc2cnn(C)c2)nc1NC[C@@H]1CCCN1S(C)(=O)=O [Example 77]
A. < 0.1 µM

Q. Kindly indicate its recorded IC50. Item: Cn1cc(Nc2ncc(Cl)c(NC[C@H]3CCN(CCO)C3)n2)cn1 [Example 56]
A. 1 to 10 µM

Q. Tell me IC50 reported for CN1C(=O)CCC1CNc1nc(Nc2cnn(C)c2)ncc1Cl (stereo not shown) [Example 78]
A. 1 to 10 µM
